// reported melting point per item

Answered cases to consult:
compound=O=C(NCc1ccc(-c2ccccc2)cc1)Oc1ccc(F)cc1 measured="155 to 157 °C"
compound=Cc1ccc(OC(=O)NCCc2ccc(-c3ccccc3)cc2)cc1 measured="172 to 174 °C"
compound="O=C(NCc1ccc(Oc2ccccc2)cc1)OCC(F)(F)F [Compound No. 10]" measured="145 to 148 °C"
compound="O=C(NCc1ccc(-c2ccccc2)cc1)OCC(F)(F)F [Compound No. 1]" measured="123 to 125 °C"
compound="O=C(NCCc1ccc(-c2ccccc2)cc1)OCC(F)(F)F [Compound No. 19]" measured="79 to 81 °C"

Supply reported melting point belonging to this compound: COc1ccc(OC(=O)NCc2ccc(Oc3ccccc3)cc2)cc1
89 to 91 °C
